# testedTarget: hNav1.7 (Homo sapiens (Human))
# Sequence (Q15858 other isoform, or with tags, fused parts or gaps): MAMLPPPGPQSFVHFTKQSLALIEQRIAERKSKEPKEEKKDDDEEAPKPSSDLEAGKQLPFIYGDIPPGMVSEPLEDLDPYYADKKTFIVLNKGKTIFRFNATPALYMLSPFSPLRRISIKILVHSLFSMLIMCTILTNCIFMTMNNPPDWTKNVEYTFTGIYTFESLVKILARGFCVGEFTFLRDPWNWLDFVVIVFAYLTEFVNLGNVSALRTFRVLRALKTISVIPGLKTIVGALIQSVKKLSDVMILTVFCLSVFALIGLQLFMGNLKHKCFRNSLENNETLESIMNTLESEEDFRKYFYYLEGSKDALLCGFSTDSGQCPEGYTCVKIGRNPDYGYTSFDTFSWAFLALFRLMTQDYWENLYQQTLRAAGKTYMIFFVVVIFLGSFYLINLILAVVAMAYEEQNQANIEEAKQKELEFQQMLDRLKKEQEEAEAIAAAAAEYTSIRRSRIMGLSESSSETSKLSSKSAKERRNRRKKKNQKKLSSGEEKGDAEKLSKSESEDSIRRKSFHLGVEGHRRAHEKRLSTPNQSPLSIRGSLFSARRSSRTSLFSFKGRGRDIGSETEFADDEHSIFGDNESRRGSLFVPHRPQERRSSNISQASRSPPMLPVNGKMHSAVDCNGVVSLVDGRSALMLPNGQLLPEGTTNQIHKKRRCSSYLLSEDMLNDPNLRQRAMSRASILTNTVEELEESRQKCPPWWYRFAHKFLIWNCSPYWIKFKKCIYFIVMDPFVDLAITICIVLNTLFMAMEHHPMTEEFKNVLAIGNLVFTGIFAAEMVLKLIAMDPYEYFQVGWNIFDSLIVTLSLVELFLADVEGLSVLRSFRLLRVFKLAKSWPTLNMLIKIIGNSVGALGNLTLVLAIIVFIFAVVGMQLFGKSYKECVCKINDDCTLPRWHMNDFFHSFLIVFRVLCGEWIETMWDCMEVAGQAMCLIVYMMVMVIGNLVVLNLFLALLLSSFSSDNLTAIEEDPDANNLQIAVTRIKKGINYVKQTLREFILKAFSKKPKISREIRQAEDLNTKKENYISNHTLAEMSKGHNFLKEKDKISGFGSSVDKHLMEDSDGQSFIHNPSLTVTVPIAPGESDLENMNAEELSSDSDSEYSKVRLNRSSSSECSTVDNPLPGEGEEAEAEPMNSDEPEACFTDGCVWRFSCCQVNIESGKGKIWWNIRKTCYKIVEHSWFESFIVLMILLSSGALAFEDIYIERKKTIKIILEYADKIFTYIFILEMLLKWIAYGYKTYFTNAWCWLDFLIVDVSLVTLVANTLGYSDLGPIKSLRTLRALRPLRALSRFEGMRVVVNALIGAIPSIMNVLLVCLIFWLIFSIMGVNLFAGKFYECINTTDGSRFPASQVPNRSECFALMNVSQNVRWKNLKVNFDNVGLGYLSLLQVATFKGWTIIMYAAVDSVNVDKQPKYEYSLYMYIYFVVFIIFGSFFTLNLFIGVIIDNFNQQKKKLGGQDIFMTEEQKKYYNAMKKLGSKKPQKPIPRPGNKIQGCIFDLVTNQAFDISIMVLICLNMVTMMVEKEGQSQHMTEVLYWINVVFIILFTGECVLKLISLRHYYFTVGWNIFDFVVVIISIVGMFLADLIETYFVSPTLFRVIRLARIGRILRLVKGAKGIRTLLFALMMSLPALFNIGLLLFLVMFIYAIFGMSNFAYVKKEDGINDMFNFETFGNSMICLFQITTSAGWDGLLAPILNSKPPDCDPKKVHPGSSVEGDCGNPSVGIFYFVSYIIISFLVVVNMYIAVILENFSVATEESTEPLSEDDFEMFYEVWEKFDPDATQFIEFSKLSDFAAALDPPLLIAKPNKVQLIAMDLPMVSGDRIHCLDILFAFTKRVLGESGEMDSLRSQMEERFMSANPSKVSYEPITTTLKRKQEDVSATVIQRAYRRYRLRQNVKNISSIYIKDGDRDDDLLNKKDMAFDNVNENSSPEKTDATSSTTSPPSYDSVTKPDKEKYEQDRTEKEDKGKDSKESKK
# Sequence (Q07699 19-218 partner): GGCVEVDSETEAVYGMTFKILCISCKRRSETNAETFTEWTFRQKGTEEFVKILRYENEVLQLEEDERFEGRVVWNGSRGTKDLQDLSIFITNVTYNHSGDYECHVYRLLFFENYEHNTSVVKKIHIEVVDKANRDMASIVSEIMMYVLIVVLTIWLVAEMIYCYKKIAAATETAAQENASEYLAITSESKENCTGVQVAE
# testMethodNotes: Tritiated sulfonamide competitive binding to membranes from cells expressing hNav1.7 and the β1 subunit
# conditionParameters: 100 pM [3H]compound, 18 h, room temperature; inactivated state of NaV1.7 membrane binding; read-out: NaV1.7 Ligand Binding Assay (IC50)
pIC50: −log10 of the molar value.
I would appreciate it if you labelled entries Fulfilled when pIC50 is 7 or higher, otherwise Not fulfilled.

>>> labelvalue("CS(=O)(=O)Nc1nnc2cc(OCCC34CC5CC(CC(C5)C3)C4)c(C3CC3)cn12 [Example 21]")
"Fulfilled"
>>> labelvalue("CC1(C)C2CCC1(C)[C@H](Oc1cc3nnc(NS(C)(=O)=O)n3cc1C1CC1)C2 (stereo in doubt)")
"Not fulfilled"
>>> labelvalue("C=Cc1cn2c(NS(C)(=O)=O)nnc2cc1OCC12CC3CC(CC(C3)C1)C2")
"Fulfilled"
>>> labelvalue("O=S(=O)(Nc1nnc2cc(COc3cc(Cl)cc(OC(F)(F)F)c3)c(C3CC3)cn12)C1CC1 [Example 42]")
"Fulfilled"
>>> labelvalue("O=S(=O)(Nc1nnc2cc(COc3ccc(Cl)c(Cl)c3)c(C3CC3)cn12)C1CC1 [Example 39]")
"Fulfilled"
>>> labelvalue("CS(=O)(=O)Nc1nnc2cc(OCC3(C(F)(F)F)CCCC3)c(C3CC3)cn12 [Example 92]")
"Fulfilled"
>>> labelvalue("C=C(C)c1cn2c(NS(C)(=O)=O)nnc2cc1OCC12CC3CC(CC(C3)C1)C2 [Example 8]")
"Fulfilled"
>>> labelvalue("CC1(COc2cc3nnc(NS(C)(=O)=O)n3cc2C2CC2)CCN(C(c2ccccc2)c2ccccc2)CC1")
"Fulfilled"
>>> labelvalue("Cc1cc(Cl)cc(OCc2cc3nnc(NS(C)(=O)=O)n3cc2C2CC2)c1 [Example 102]")
"Fulfilled"
>>> labelvalue("CC1(C)C2CC[C@]1(C)[C@H](Oc1cc3nnc(NS(C)(=O)=O)n3cc1C1CC1)C2 (stereo in doubt)")
"Not fulfilled"
>>> labelvalue("CS(=O)(=O)Nc1nnc2cc(OC[C@H]3CC[C@H](C(F)(F)F)CC3)c(C3CC3)cn12 [Example 68]")
"Fulfilled"

###

# testedTarget: UniProtKB Q15858
# testMethodNotes: Tritiated sulfonamide competitive binding to membranes from cells expressing hNav1.7 and the β1 subunit;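 further: displacement of the tritiated ligand from recombinant cell membranes, read by liquid scintillation counting of filter-bound radioactivity, nonspecific binding defined with 1 µM unlabelled compound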
# conditionParameters: 100 pM [3H]compound, 18 h, room temperature; inactivated state of NaV1.7 membrane binding; read-out: NaV1.7 Ligand Binding Assay (IC50)
Consider the cut-off 7 nM. If the recorded IC50 is strictly smaller, the label is fulfilled; if not, the label is not fulfilled.

>>> labelvalue("CC1(COc2cc3nnc(NS(=O)(=O)C4CC4)n3cc2C2CC2)CCC2(CC1)CC2 [Example 114]")
"not fulfilled"
>>> labelvalue("CC1(S(=O)(=O)Nc2nnc3cc(COc4cc(Cl)cc(Cl)c4)c(C4CC4)cn23)CC1 [Example 105]")
"fulfilled"
>>> labelvalue("O=S(=O)(Nc1nnc2cc(OC3CCC4(CCCCC4)CC3)c(C3CC3)cn12)C1CC1 [Example 35]")
"not fulfilled"
>>> labelvalue("CC1(COc2cc3nnc(NS(=O)(=O)C4CC4)n3cc2C2CC2)CCC(F)(F)CC1 [Example 108]")
"not fulfilled"
>>> labelvalue("O=S(=O)(Nc1nnc2cc(OCC3CCC4(CC3)CC4)c(C3CC3)cn12)C1CC1 [Example 16]")
"not fulfilled"
>>> labelvalue("CS(=O)(=O)Nc1nnc2cc(OCC3CC4C5CCC(C5)C4C3)c(C3CC3)cn12 (stereo not shown) [Example 25]")
"fulfilled"
>>> labelvalue("CS(=O)(=O)Nc1nnc2cc(COc3cc(Cl)cc(OC(F)(F)F)c3)c(C3CC3)cn12 [Example 98]")
"fulfilled"
>>> labelvalue("CC12CC3(C)CC(C)(C1)CC(COc1cc4nnc(NS(C)(=O)=O)n4cc1C1CC1)(C2)C3 [Example 122]")
"fulfilled"
>>> labelvalue("CC1(S(=O)(=O)Nc2nnc3cc(COc4cc(Cl)cc(Cl)c4)c(C4CC4)cn23)CC1 [Example 50]")
"fulfilled"
>>> labelvalue("C[C@H](c1cc(Cl)cc(Cl)c1)N1CCC(COc2cc3nnc(NS(C)(=O)=O)n3cc2C2CC2)CC1 [Example 119]")
"not fulfilled"
>>> labelvalue("CC1(COc2cc3nnc(NS(C)(=O)=O)n3cc2C2CC2)CCCCC1 [Example 14]")
"not fulfilled"
>>> labelvalue("C[C@H](c1cc(Cl)cc(Cl)c1)N1CCC(C)(COc2cc3nnc(NS(C)(=O)=O)n3cc2C2CC2)CC1 [Example 118]")
"not fulfilled"
>>> labelvalue("O=S(=O)(Nc1nnc2cc(COc3ccc(Cl)c(Cl)c3)c(C3CC3)cn12)N1CCC1 [Example 41]")
"not fulfilled"
>>> labelvalue("C=C(C)c1cn2c(NS(C)(=O)=O)nnc2cc1OCC12CC3CC(CC(C3)C1)C2 [Example 63]")
"not fulfilled"
